Test system: erythrocytic stages of P. falciparum NF54
Assay Overview: Plasmodium falciparum in vitro assay, [3H] hypoxanthine incorporation
Format: cell-based
Condition Summary: Plasmodium falciparum, Erythrocyte, 72 h; P. falciparum NF54 in human red blood cells; screening medium with human serum (50% final concentration); 48 h + 24 h incubation; read-out: IC50 on NF54 (with 50% Serum)
Assign pIC50 to each entry below.
Lab note: report pIC50 as minus log10 of the concentration in molar units, number only.

[ask] What measured pIC50 goes with CC(=O)N1CCN(c2ccc(CN(C(=O)C=Cc3ccc(C(C)C)cc3)[C@@H](Cc3ccccc3)C(=O)N3CCN(Cc4ccc(Cl)cc4)CC3)cc2)CC1 ?
[reply] 7.86

[ask] What measured pIC50 goes with CC(=O)N1CCN(c2ccc(CN(C(=O)C=Cc3ccc(OC(F)F)cc3)[C@@H](Cc3ccccc3)C(=O)N3CCN(Cc4ccc(N(C)C)cc4)CC3)cc2)CC1 ?
[reply] 8.15

[ask] What measured pIC50 goes with CC(=O)N1CCN(c2ccc(CN(C(=O)C=Cc3ccc(S(C)(=O)=O)cc3)[C@@H](Cc3ccccc3)C(=O)N3CCN(Cc4ccc(N(C)CCO)cc4)CC3)cc2)CC1 ?
[reply] 7.83

[ask] What measured pIC50 goes with CC(=O)N1CCN(c2ccc(CN(C(=O)C=Cc3ccc(C(C)(C)C)cc3)[C@@H](Cc3ccccc3)C(=O)N3CCN(Cc4ccccc4)CC3)cc2)CC1 ?
[reply] 8.07

[ask] What measured pIC50 goes with CCc1ccc(C=CC(=O)N(Cc2ccc(N3CCN(C(C)=O)CC3)cc2)[C@@H](Cc2ccccc2)C(=O)N2CCN(Cc3ccccc3)CC2)cc1 ?
[reply] 8.00

[ask] What measured pIC50 goes with CC(=O)N1CCN(c2ccc(CN(C(=O)C=Cc3ccc(OC(F)F)cc3)[C@@H](Cc3ccccc3)C(=O)N3CCN(Cc4ccc(N(C)CCO)cc4)CC3)cc2)CC1 ?
[reply] 8.09

[ask] What measured pIC50 goes with CC(=O)N1CCN(c2ccc(CN(C(=O)C=Cc3ccc(C(C)(C)C)cc3)[C@@H](Cc3ccccc3)C(=O)N3CCN(Cc4ccc(N(C)C)cc4)CC3)cc2)CC1 ?
[reply] 7.96

[ask] What measured pIC50 goes with CCCOc1ccc(C=CC(=O)N(Cc2ccc(N3CCN(C(C)=O)CC3)cc2)[C@@H](Cc2ccccc2)C(=O)N2CCN(Cc3ccc(N(C)C)cc3)CC2)cc1 ?
[reply] 7.93

[ask] What measured pIC50 goes with CC(=O)N1CCN(c2ccc(CN(C(=O)C=Cc3ccc(C(C)(C)C)cc3)[C@@H](Cc3ccccc3)C(=O)N3CCN(Cc4ccc(Cl)cc4)CC3)cc2)CC1 ?
[reply] 7.87

[ask] What measured pIC50 goes with CC(=O)c1ccc(C=CC(=O)N(Cc2ccc(N3CCN(C(C)=O)CC3)cc2)[C@@H](Cc2ccccc2)C(=O)N2CCN(Cc3ccc(N(C)C)cc3)CC2)cc1 ?
[reply] 7.80

[ask] What measured pIC50 goes with CC(=O)N1CCN(c2ccc(CN(C(=O)C=Cc3ccc(OC(F)F)cc3)[C@@H](Cc3ccccc3)C(=O)N3CCN(Cc4ccc(Cl)cc4)CC3)cc2)CC1 ?
[reply] 7.90

[ask] What measured pIC50 goes with CC(=O)N1CCN(c2ccc(CN(C(=O)C=Cc3ccc(C(F)(F)F)cc3)[C@@H](Cc3ccccc3)C(=O)N3CCN(Cc4ccc(C#N)cc4)CC3)cc2)CC1 ?
[reply] 7.86

[ask] What measured pIC50 goes with COC(=O)c1ccc(C=CC(=O)N(Cc2ccc(N3CCN(C(C)=O)CC3)cc2)[C@@H](Cc2ccccc2)C(=O)N2CCN(Cc3ccccc3)CC2)cc1 ?
[reply] 7.92

[ask] What measured pIC50 goes with CC(=O)N1CCN(c2ccc(CN(C(=O)C=Cc3ccc(S(C)(=O)=O)cc3)[C@@H](Cc3ccccc3)C(=O)N3CCN(Cc4ccc(N(C)C)cc4)CC3)cc2)CC1 ?
[reply] 7.88
